System: β-galactosidase in CMV-LacZ C2C12 myoblasts
Test Summary: CMV-LacZ secondary screen in C2C12 myoblasts (β-Gal stabilizing assay)
Assay type: cell-based, mouse
Assay Setup: 40 uM; CMV-LacZ C2C12 myoblasts
Readout Label: CMV-LACZ in Myoblasts (β-galactosidase activity relative to DMSO)
Format: numeric value only, no unit, no commentary.

Below, each entry is followed by its recorded CMV-LACZ in Myoblasts (β-galactosidase activity relative to DMSO) result.
O=C(NCc1ccccc1)c1csc(-c2cccnc2)n1 [MLS000860966-01] :: 0.7600
COc1cc([N+](=O)[O-])cc(/C=N/NC(=O)C(O)(c2ccccc2)c2ccccc2)c1O [MLS001183575-01] :: 0.8856
CCCN(C(=O)c1ccc(S(=O)(=O)N2CCCC2)cc1)C1CCS(=O)(=O)C1 (stereo not shown) [MLS002161853-01] :: 0.9348

Would you kindly look at the next entry?
Task: Report measured CMV-LACZ in Myoblasts (β-galactosidase activity relative to DMSO); entry is O=C(CCc1ccccc1)c1nnc(-c2ccccc2)o1 [MLS001004364-01]
Output: 1.0441

----------
System: α7 integrin (LacZ reporter in α7LacZ+/− myoblasts)
Test Summary: qHTS of the LOPAC library and MLSMR (online screen, α7LacZ+/− myoblasts)
Assay Setup: Mus musculus, Myoblast, read-out: Max Response [%]
Readout Label: Emax (%)
Use % as the unit, but write only the number.

NC(=O)c1cccnc1Oc1ccc(Cl)cc1Cl :: 105
Cc1ccc(CNc2ncnc(N)c2[N+](=O)[O-])cc1 :: 97.4
COc1ccc(-n2c(C)c(C(C)=O)c3cc(OC(C)=O)ccc32)cc1 :: 184
COc1ccc(CCNC(=O)Cn2nnc(C(=O)Nc3ccc(Br)cc3)c2N)cc1OC :: 102

Would you kindly look at the next entry?
Task: Report measured Emax; entry is Cc1nnc(NC(=O)CSc2nnc(CCNC(=O)c3ccccc3F)n2C)s1
Output: 84.9

----------
Tested on: α7 integrin (LacZ reporter in α7βgal+/− myoblasts)
Test Summary: Myoblast α7+/LacZ integrin FDG assay (Burkin assay in myoblasts, 96-well)
Assay type: cell-based, mouse
Assay Setup: 5 uM; SU9516 analogs, 96-well, N=3-6
Form field: Burkin Assay in Myoblasts, value relative to DMSO (one value per entry).
Format: numeric value only, no unit, no commentary.

COc1ccc2c(c1)C(=C(C#N)C#N)C(=O)N2CCc1ccccc1 :: 0.843

Task: Output reported Burkin Assay in Myoblasts, value relative to DMSO of the compound NC(=O)COc1ccc(C(=O)/C=C2/C(=O)Nc3ccccc32)cc1 on α7 integrin (LacZ reporter in α7βgal+/− myoblasts).
Output: 0.8041

Task: Output reported Burkin Assay in Myoblasts, value relative to DMSO of the compound COc1ccc(C(=O)/C=C2/C(=O)Nc3ccccc32)cc1OC on α7 integrin (LacZ reporter in α7βgal+/− myoblasts).
Output: 0.5793

Task: Output reported Burkin Assay in Myoblasts, value relative to DMSO of the compound O=C1Nc2ccccc2/C1=C/c1cnc(-c2ccccc2)[nH]1 on α7 integrin (LacZ reporter in α7βgal+/− myoblasts).
Output: 1.227

Task: Output reported Burkin Assay in Myoblasts, value relative to DMSO of the compound Cc1ccc(/C=C2\C(=O)Nc3ccccc32)o1 on α7 integrin (LacZ reporter in α7βgal+/− myoblasts).
Output: 0.9119
